Origin of the recorded values: ChEMBL document CHEMBL3988442

Below: a set of entries, each annotated with reported Percent Effect.
Test system: Leishmania donovani
Experiment: Leishmania intramacrophage assay
Format: functional, organism-based
Parameters: scale not given: in the data most compounds retested in dose-response had high values
Details: 30.3 µM; […]
Screen size: about 69,000 compounds; about 1,000 (1.4%) showed an effect of 50% or more. What follows is part of a selection rich in strong results, with near analogues and random picks from the rest.
# output: bare number, implied unit %

Consider the reported Percent Effect for these molecules:
Cc1nnc(SCCNC(=O)Cn2cnc3ccccc3c2=O)s1 | 15.09
Cc1ncnc(NCC(C)N(C)c2ccccc2)c1C (stereo unspecified) | 57.28
CCn1ccnc1CN(C)c1cc(C2CCCNC2)nc(C)n1 (stereo unspecified) | -6.202
O=C(N1CCOCC1)N1CCOC[C@H](Oc2ccc(C(F)(F)F)cc2)C1 | -1.363
Fc1cc(F)cc(CN2CCC(c3cc4ncccc4cn3)CC2)c1 | 29.54

Problem: Given Cl.c1cc(NCc2ccncc2)nc(C2CCCNC2)c1 (stereo unspecified) , state its recorded Percent Effect.
Result: 20.7

Problem: Reported Percent Effect for CC(=O)N1CCC2(CC1)CN(C(=O)[C@@H]1CSCN1)c1ccc(Cl)cc12.O=C(O)C(F)(F)F : what is it?
Result: 42.29

Problem: Would you kindly share the measured Percent Effect for Cc1cc(NCc2cn(C)nc2-c2cccnc2)n(C)n1 ?
Result: -18.07

Problem: Recorded Percent Effect of CCN1CCC(NC(=O)NC2CCOc3ccc(Br)cc32)CC1 (stereo unspecified) , please.
Result: 1.839

Problem: # get_value(readout='Percent Effect', item= Cc1nc(C2CCCNC2)cc(N(C)CCc2cn[nH]c2)n1 (stereo unspecified) )
Result: 29.46

Problem: # query: Percent Effect of entry Cn1cncc1CN1CCCC1c1cncc(Oc2ccc(F)cc2)n1 (stereo unspecified)
Result: 23.83

----------
# Percent Effect per record follows
Test system: Leishmania donovani
Experiment: Leishmania intramacrophage assay
Format: functional, organism-based
Set-up: scale not given: in the data most compounds retested in dose-response had high values
Settings: 30.3 µM; […]
The whole screen tested about 69,000 compounds, of which about 1,000 (1.4%) showed an effect of 50% or more. The sample holds strong results, similar compounds and a random draw of the others, so the mix is not that of the screen.
Write it as a number; the unit % goes unstated.

CNC(=O)c1ccc(C2CN(C(=O)c3cnn(C)c3)CCO2)nc1 (centres undefined) | 4.595
OCc1ccccc1CNCC1CNc2ccnn2C1 (centres undefined) | 22.72
CCc1nnc(CNC2CCN(c3ncnc4c(C)csc34)CC2)s1 | 52.55
CO[C@H]1CN(C(=O)c2ccc(-c3ccccc3)[nH]2)CC[C@H]1N | 45.29
CNC(=O)C1CCN(Cc2nc(-c3ccc(SC)cc3)oc2C)C1 (centres undefined) | 7.886
N[C@@H]1CC[C@@H](NC(=O)c2ccccc2OC(F)(F)C(F)F)C1 | -30
O=C(c1ccc(-c2ccc(O)nc2)s1)N1CCCCCC1 | 19.86
CCCn1nccc1-c1nccnc1CC1CCN(C(C)=O)CC1 | -24.99

Problem: Entry CCc1nc(C2CCCN2c2ncc(C(N)=O)cc2Cl)no1 (centres undefined) has what Percent Effect?
Result: -6.943

Problem: I would be grateful if you could share the reported Percent Effect for O=C(c1ccoc1)N1CC[C@@H]2O[C@@H](COCC3CCOCC3)CC[C@@H]21 .
Result: 5.212

Problem: GET /values?readout=Percent Effect&item= CSc1ccc(-c2nc(CN3CCNCC3C)c(C)o2)cc1 (centres undefined)
Result: 81.77

Problem: Suppose we examine the molecule COc1ccc(C(CNS(=O)(=O)c2cn(C)nc2C)N2CCCC2)cc1.Cl (centres undefined) ; what Percent Effect value has been reported?
Result: 23.75

Problem: Quick one: Percent Effect of CC(C)(C)C(=O)N1CCN(C(=O)Nc2cnn(CC(F)F)c2)CC1 ?
Result: 4.989

Problem: For the molecule shown here, O=C(CCN1CCOCC1)NC1CCCN(CC2CCCCC2)C1 (centres undefined) , give the reported Percent Effect.
Result: 10.41

Problem: Could you tell me which Percent Effect is on file for Cc1ccoc1C(=O)N1CC[C@H]2[C@@H]1CCC(=O)N2c1cccnc1.O=C(O)C(F)(F)F ?
Result: 3.255

Problem: Name the reported Percent Effect value associated with the molecule CCOCC1CN(C(=O)Cc2ccccn2)Cc2cn(C)nc21 (centres undefined)
Result: 5.026

Problem: Record request: Percent Effect value, item Cc1cccc(-n2cnnc2CCCN2CCOCC2)c1
Result: 22.56

Problem: Suppose we examine the molecule COc1ccccc1-c1csc(NC(=O)N2CCN(C)CC2C)n1 (centres undefined) ; what Percent Effect value has been reported?
Result: 9.878

Problem: # get_value(readout='Percent Effect', item= Cc1cc2n(n1)CC(CNC1CCN(CCc3ccccc3)CC1)CN2 (centres undefined) )
Result: 15.82

----------
System: Leishmania donovani
Experiment: Leishmania intramacrophage assay
Format: functional, organism-based
Set-up: scale not given: in the data most compounds retested in dose-response had high values
Details: 30.3 µM; […]
Screen size: about 69,000 compounds; about 1,000 (1.4%) showed an effect of 50% or more. The entries come from a sample that favours strong results as a whole.
outcome measure: Percent Effect (%)
Give your result in % as a bare value.

CC(Cn1cncn1)NC(=O)N1CC2(CCCC2)c2ccccc21 (stereo unspecified) | 3.028
CC(CNC(=O)c1cccc(-n2cccn2)n1)Cn1ccnc1 (stereo unspecified) | 11.75
COc1ccc2cnn(CC(=O)NC3CCCCC3)c(=O)c2c1OC | 14.43
CCn1c(-c2ccccc2)nn(CC(=O)NCCc2c[nH]cn2)c1=O | 22.36

Problem: Endpoint output: Percent Effect of CC(C)c1ccc(/C=C/CC(=O)NC2CCN(C(N)=O)CC2)cc1 . Value?
Result: -5.908

Problem: I would be grateful if you could share the reported Percent Effect for O=C(Cn1ccc2cc(Br)ccc21)NC[C@@H]1CCCN2CCCC[C@H]12 .
Result: 50.79

Problem: If you can, please state the reported Percent Effect value of COc1ccccc1CCN1CCCC(CN(C)Cc2cc(C)n[nH]2)C1 (stereo unspecified) .
Result: 19.41

Problem: Look up Percent Effect for this compound: COCCN1CCC(NC(=O)C/C=C/c2ccc(C(C)C)cc2)CC1
Result: 51.69

Problem: For the compound Cc1nc(CN2CCc3ncnc(-c4ccncc4)c3CC2)cs1.O=C(O)C(F)(F)F.O=C(O)C(F)(F)F , what Percent Effect is on record?
Result: 3.502

Problem: Tell me the measured Percent Effect of CNC(=O)NCC(CO)Cc1ccccc1OC(F)(F)F (stereo unspecified) , please.
Result: 7.334

----------
Tested on: Leishmania donovani
Test: Leishmania intramacrophage assay
Assay type: functional, organism-based
Parameters: scale not given: in the data most compounds retested in dose-response had high values
Settings: 30.3 µM; […]
The campaign covered roughly 69,000 compounds. About 1,000 (1.4%) showed an effect of 50% or more. The full list was thinned out, with strong results kept by preference.
Criterion: Percent Effect strictly under 30%. Met: YES. Not met: NO.

CN(C)CC(=O)N1CCC2(CCc3ccc(-c4ccncc4)cc32)CC1.O=C(O)C(F)(F)F.O=C(O)C(F)(F)F | NO
O=C(O)C(F)(F)F.c1cc(-c2ccc3c(c2)CCC32CCN(c3nncs3)CC2)ccn1 | NO
COc1ncccc1CNC(=O)C1=NN(c2ccccc2)C(=O)CN1 | YES
COc1ccc(CNC(=O)C2=NN(c3ccc(C)cc3)C(=O)CN2)cc1 | NO

Would you kindly look at the next entry?
Problem: API: query returns whether the compound falls strictly under 30% in Percent Effect. Query: N#Cc1ccc(CNC(=O)C2=NN(c3ccccc3)C(=O)CN2)cc1
Result: YES

----------
Tested on: Leishmania donovani
Assay: Leishmania intramacrophage assay
Format: functional, organism-based
Set-up: scale not given: in the data most compounds retested in dose-response had high values
Conditions: 30.3 µM; […]
The campaign covered roughly 69,000 compounds. About 1,000 (1.4%) showed an effect of 50% or more. For the sample, strong results were picked, then their nearest neighbours and some compounds at random.
Could you please mark yes for values of Percent Effect below 20% and no for values at or above it?

N#Cc1ccnc(N2CCN(C(=O)c3ccc4c(c3)CCO4)CC2)c1 | yes

Problem: I wonder whether CCS(=O)(=O)N1CCCC(c2nccn2Cc2ccccn2)C1 (stereo unspecified) has Percent Effect below 20%. Can you tell?
Result: yes

Problem: Percent Effect strictly < 20% for this molecule? CN(Cc1cccnc1N)Cc1cccc2ncccc12
Result: no

Problem: Could you please tell me whether Percent Effect recorded for Cc1ccc(C(C(=O)NCCN2CCC(CO)CC2)N(C)C)cc1 (stereo unspecified) is less than 20%?
Result: no

Problem: I wonder whether CN(Cc1cc2n(n1)CCNC2)Cc1n[nH]c2c1CCCCC2 has Percent Effect below 20%. Can you tell?
Result: no

Problem: Check if Percent Effect falls below 20% for CN(C)S(=O)(=O)N1CC[C@]2(C[C@@H](Oc3cccnc3)CO2)C1.O=C(O)C(F)(F)F .
Result: yes

Problem: Please let me know if Cc1ccc(C(CCNCCN(C)C)C2CCOC(C)(C)C2)cc1.O=C(O)C(=O)O (stereo unspecified) shows Percent Effect below 20%.
Result: no
